- Tested on: Saccharomyces cerevisiae
- Procedure summary: protein stability index of tFT-peptide fusion (C-terminal peptide) (PSI (0-1 scale)); higher = more stable (slower turnover);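 also: PSI is a weighted mean of sequencing reads over stability bins, variants kept only with over 10 reads, mCherry proximal and sfGFP distal, peptide attached via GGGS linker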
- Measurement context: genetic background: doa10 deletion; temperature: 30 C
# cutoff 0.3 applies to protein stability index; >= gives Fulfilled, < gives Not fulfilled

WCCCVSGFVWWM | Fulfilled
NAAVQSGGRVAG | Fulfilled
LYFLLGSLVFVF | Not fulfilled

For this sequence, is measured protein stability index 0.3 or higher? `YYLVKCVYLRTT`
Not fulfilled

For this sequence, is measured protein stability index 0.3 or higher? `CFFPLFLCTAFC`
Fulfilled

For this sequence, is measured protein stability index 0.3 or higher? `RRFKKTEIIKNN`
Not fulfilled

For this sequence, is measured protein stability index 0.3 or higher? `LLVVFSCFTFMF`
Not fulfilled

For this sequence, is measured protein stability index 0.3 or higher? `WHFMVFFCFCVD`
Not fulfilled

For this sequence, is measured protein stability index 0.3 or higher? `RGGVCFVVWCGG`
Fulfilled

For this sequence, is measured protein stability index 0.3 or higher? `SLLLLSLCRFVG`
Not fulfilled

For this sequence, is measured protein stability index 0.3 or higher? `WWVAGLGSSGGG`
Fulfilled

For this sequence, is measured protein stability index 0.3 or higher? `CACAVPFLLLFF`
Fulfilled

For this sequence, is measured protein stability index 0.3 or higher? `RARFMLGVLLST`
Fulfilled

For this sequence, is measured protein stability index 0.3 or higher? `PLSDPLRVILIM`
Not fulfilled

###

- System: Saccharomyces cerevisiae
- Procedure summary: protein stability index of tFT-peptide fusion (C-terminal peptide) (PSI (0-1 scale)); higher = more stable (slower turnover)
- Measurement context: genetic background: wild type; temperature: 30 C
Recorded metric: protein stability index
The reply should be a number, written without any unit.

Past entries and their recorded results:
LHGRTLENIVVR | 0.648
LSDSLERVGGAF | 0.701
PLPGPSPPPAPP | 0.648

Provide measured protein stability index value, entry: `GRGWGWALGWCG`
0.698

Provide measured protein stability index value, entry: `FPRLTYAPFLAD`
0.722

Provide measured protein stability index value, entry: `APPPGSTFVSCE`
0.674

###

- Tested on: Saccharomyces cerevisiae
- Procedure summary: protein stability index of tFT-peptide fusion (C-terminal peptide) (PSI (0-1 scale)); higher = more stable (slower turnover)
- Measurement context: genetic background: wild type; temperature: 37 C
Recorded metric: protein stability index
The reply should be a number, written without any unit.

Past entries and their recorded results:
SVFCSLFLFLFY | 0.517
RGRLKSSYFILF | 0.671
IYFFFFALHFPN | 0.544
CSFELSVCLMLR | 0.185
SFCVLLQFCVLV | 0.426
GALVVSWAEVLC | 0.57
LLISPFLFLLVC | 0.0515
GLGVIFFLLGYG | 0.551

Provide measured protein stability index value, entry: `VFFIFFFAFLFF`
0.39

Provide measured protein stability index value, entry: `RFCLLFVVAGGV`
0.516

Provide measured protein stability index value, entry: `LVCLFFLSSLFF`
0.58

Provide measured protein stability index value, entry: `GGGVGVAVVLFW`
0.506

Provide measured protein stability index value, entry: `GMLIYVIGGLSH`
0.626

Provide measured protein stability index value, entry: `GVWSLDWFLLVW`
0.217

Provide measured protein stability index value, entry: `VASYVCIGVVWV`
0.456

Provide measured protein stability index value, entry: `TVYMVIRVIVWG`
0.154

Provide measured protein stability index value, entry: `LGIPKLLCFVCT`
0.421

Provide measured protein stability index value, entry: `VWLFCLSRLYLL`
0.114

Provide measured protein stability index value, entry: `VSWSVSALIYLK`
0.295

Provide measured protein stability index value, entry: `FFCFFWLFHWFG`
0.536

Provide measured protein stability index value, entry: `FCCFFPFLWRVF`
0.455

Provide measured protein stability index value, entry: `FGCCLYFCFWGL`
0.491

Provide measured protein stability index value, entry: `LLDIYFILLVWF`
0.432

Provide measured protein stability index value, entry: `VVRLRVWRLLKV`
0.185

Provide measured protein stability index value, entry: `FFFWLLCAGWLL`
0.649

Provide measured protein stability index value, entry: `FSRFPFVKLSLV`
0.306

Provide measured protein stability index value, entry: `AQLVYVITAVRT`
0.507

Provide measured protein stability index value, entry: `WVGVVLLSVVGG`
0.323
